# Target desc: SARS-CoV-2 nsp3-mac1 (Severe acute respiratory syndrome coronavirus 2, UniProt P0DTD1)
# Assay overview: biochemical
# Assay type: biochemical
# Condition info: SARS-CoV-2 nsp3 macrodomain TR-FRET single point; concentration 49.75 uM
Measured metric: perc_inhibition_mean (%)
Answer with a number only, understood to be in %.

Consider the following illustrative entries.
CC(C)[C@@H](Nc1ncnc2[nH]ccc12)C(N)=O	64.403
O=C(c1nc(=O)[nH][nH]1)N1CCC(c2ccn3ncc(C(=O)N4CCCCC4)c3c2)CC1	23.445
O=C(C[C@@H](NC(=O)c1ncnc2[nH]ccc12)C1CC1)NCc1ccc(C(=O)O)cc1	-9.862

perc_inhibition_mean recorded for this compound, `Cc1[nH]ncc1CN(C)C(=O)c1cnn2ccc(C3CCN(C(=O)c4ccccc4)CC3)cc12` , is -1.138

perc_inhibition_mean recorded for this compound, `Cn1cc([C@H]2CCCCN2c2ncnc3[nH]ccc23)cn1` , is 6.392

Every entry's value here was drawn from paper doi:10.1101/2024.08.19.608619.
